These measurements were taken from patent US4063025A.

- System: guinea pig
- Assay comment: Anti asthmatic activity: protection from histamine-induced asthmatic dyspnea, subcutaneous (Parker et al.)
- Type: in vivo
- Condition details: Cavia porcellus, sc, 0.5 h; subcutaneous, 30 min. prior to spasmogen (0.1% histamine dihydrochloride spray), guinea pig; read-out: anti-asthmatic activity ED50
Counter-ions that a name gives are not always drawn.
Give ED50 for every item shown.
Answers are plain numbers, in mg/kg.

Compound	Obs value
COC(=O)Nc1c(Cl)cc(C(O)CNC(C)(C)C)cc1Br (stereo not shown) [Ex. 18]	0.063
COCCOC(=O)Nc1c(Cl)cc(C(O)CNC(C)(C)C)cc1Cl (stereo not shown) [Ex. 14, hydrochloride]	0.032
CC(C)(C)NCC(O)c1cc(Cl)c(NC(=O)OCc2ccccc2)c(Cl)c1.Cl (stereo not shown) [Ex. 13]	0.125
COC(=O)Nc1c(Br)cc(C(O)CNC(C)(C)C)cc1Br (stereo not shown) [Ex. 8]	0.125

Now for another entry.
// compound CC(C)OC(=O)Nc1c(Cl)cc(C(O)CNC(C)(C)C)cc1Cl (stereo not shown) [Ex. 12] , assay guinea pig, ED50 value: 0.032
